Recorded values, source patent US20110263822A1.

molecular target: MHC class I molecules K^b (Mus musculus); experiment: biochemical; conditions: 48 hours at 18° C.; read-out: K^b-binding
Sequence (P01901 whole entry, looked up): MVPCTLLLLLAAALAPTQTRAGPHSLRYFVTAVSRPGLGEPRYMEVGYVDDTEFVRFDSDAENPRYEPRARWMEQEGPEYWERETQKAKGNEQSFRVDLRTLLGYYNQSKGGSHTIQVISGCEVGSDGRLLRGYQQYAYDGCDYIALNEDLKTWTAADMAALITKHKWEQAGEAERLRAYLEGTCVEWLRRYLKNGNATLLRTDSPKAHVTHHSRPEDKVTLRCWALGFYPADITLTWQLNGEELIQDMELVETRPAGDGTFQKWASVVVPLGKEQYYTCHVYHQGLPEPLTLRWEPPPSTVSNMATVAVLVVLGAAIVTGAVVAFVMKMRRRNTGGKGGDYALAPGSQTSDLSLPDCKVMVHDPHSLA
Ends that are not written are not given here.
Attribute Measured: IC50 (nM)
Report the figure in nM without appending any unit label.

[ask] Give its IC50 value. Item: IVSPFIPL [IVSPFIPL]
[reply] 773
